experiment: Aqueous solubility of the compound; type: physicochemical
Observed Property: solubility

Problem: Value lookup for solubility; key = COc1cc(/C=C/C(=O)CC(=O)/C=C/c2ccc(O)c(OC)c2)ccc1O
Result: 1000 to 10000 µg/mL

----------
test: Tmax in human at […], po after 3 months; format: ADME, organism-based; details: in vivo
Observed Property: Tmax

Problem: Value lookup for Tmax; key = COc1cc(/C=C/C(=O)CC(=O)/C=C/c2ccc(O)c(OC)c2)ccc1O [CURCUMIN]
Result: 1 to 2 h

----------
assay: Cmax in human at […], po after 3 months; format: ADME, organism-based; set-up: route oral; conditions: in vivo
Observed Property: Cmax (nM)
Write the value in nM as a bare number.

Problem: Value lookup for Cmax; key = COc1cc(/C=C/C(=O)CC(=O)/C=C/c2ccc(O)c(OC)c2)ccc1O [CURCUMIN]
Result: 1770
